This collection of values is drawn from paper PMC12140300.

# Study target: 5-HT1B (Homo sapiens)
# Sequence (P28222 whole entry, species assumed): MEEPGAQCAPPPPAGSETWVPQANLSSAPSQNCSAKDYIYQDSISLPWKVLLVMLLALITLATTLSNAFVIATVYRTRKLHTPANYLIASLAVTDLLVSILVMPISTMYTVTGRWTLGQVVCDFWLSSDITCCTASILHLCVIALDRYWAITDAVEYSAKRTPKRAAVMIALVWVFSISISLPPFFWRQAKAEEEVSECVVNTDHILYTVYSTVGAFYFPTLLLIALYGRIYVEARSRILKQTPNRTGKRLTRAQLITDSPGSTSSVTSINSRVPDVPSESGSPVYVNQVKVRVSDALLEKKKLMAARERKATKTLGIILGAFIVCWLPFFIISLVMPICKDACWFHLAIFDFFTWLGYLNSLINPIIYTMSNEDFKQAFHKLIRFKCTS
# Assay explanation: PDSP radioligand assay
# Format: binding
Measured metric: Ki (µM)
Value expressed in µM; do not type the unit.

[
  {
    "Smiles str": "Cc1nc(-c2ccc(Cl)cc2)nc(OCCCN2CCN(C)CC2)c1Cl",
    "Units of measure": "µM",
    "Ki": 3.74
  }
]

Please find the next compound below.
## Input Ki of COc1ccc(-c2nc(C)c(Cl)c(OCCCN3CCCCC3)n2)cc1 on 5-HT1B (Homo sapiens)?
## Output 3.2

---

# Study target: D5 (Homo sapiens, UniProt P21918)
# Sequence (P21918 whole entry): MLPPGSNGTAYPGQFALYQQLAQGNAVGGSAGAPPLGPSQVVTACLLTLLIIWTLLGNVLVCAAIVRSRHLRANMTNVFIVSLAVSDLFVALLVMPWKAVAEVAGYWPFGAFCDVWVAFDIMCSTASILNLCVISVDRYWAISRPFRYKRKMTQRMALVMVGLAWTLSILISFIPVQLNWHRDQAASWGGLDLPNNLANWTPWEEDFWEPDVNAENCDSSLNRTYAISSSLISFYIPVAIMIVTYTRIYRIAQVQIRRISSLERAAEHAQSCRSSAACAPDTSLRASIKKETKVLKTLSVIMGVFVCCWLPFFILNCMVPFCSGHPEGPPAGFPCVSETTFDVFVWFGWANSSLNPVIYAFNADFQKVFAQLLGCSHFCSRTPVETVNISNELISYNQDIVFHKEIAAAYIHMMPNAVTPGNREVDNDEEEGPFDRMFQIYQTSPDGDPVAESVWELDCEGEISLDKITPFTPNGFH
pKi: −log10 of the molar value.
Measured metric: pKi

## Input For the compound Cc1nc(-c2ccc(Cl)cc2)nc(OCCCN2CCN(C)CC2)c1Cl [CNY-02] , what pKi is on record?
## Output < 5.00

---

# Study target: Alpha2C (Homo sapiens)
# Sequence (P18825 1-462): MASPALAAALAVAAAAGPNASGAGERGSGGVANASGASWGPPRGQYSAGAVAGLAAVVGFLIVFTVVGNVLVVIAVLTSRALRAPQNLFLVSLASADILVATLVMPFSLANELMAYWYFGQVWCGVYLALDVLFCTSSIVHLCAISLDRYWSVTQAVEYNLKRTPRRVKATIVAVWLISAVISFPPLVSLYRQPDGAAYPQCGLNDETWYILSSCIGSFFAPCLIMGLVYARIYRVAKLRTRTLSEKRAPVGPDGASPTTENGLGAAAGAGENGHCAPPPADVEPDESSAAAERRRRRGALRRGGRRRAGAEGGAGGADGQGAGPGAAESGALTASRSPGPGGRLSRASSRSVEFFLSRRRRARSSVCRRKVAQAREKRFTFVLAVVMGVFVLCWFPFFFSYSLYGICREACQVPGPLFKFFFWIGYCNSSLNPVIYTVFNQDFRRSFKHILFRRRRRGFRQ
Measured metric: Ki (nM)
Response body: numeric value in nM, unit text excluded.

[
  {
    "Smiles str": "COc1ccc(-c2nc(C)c(Cl)c(OCCCN3CCCCC3)n2)cc1",
    "Ki, nM": 430
  }
]

Please turn your attention to the following entry.
## Input What measured Ki goes with Cc1nc(-c2ccc(Cl)cc2)nc(OCCCN2CCN(C)CC2)c1Cl ?
## Output 3770

---

# Study target: H1 (Homo sapiens)
# Sequence (P35367 whole entry): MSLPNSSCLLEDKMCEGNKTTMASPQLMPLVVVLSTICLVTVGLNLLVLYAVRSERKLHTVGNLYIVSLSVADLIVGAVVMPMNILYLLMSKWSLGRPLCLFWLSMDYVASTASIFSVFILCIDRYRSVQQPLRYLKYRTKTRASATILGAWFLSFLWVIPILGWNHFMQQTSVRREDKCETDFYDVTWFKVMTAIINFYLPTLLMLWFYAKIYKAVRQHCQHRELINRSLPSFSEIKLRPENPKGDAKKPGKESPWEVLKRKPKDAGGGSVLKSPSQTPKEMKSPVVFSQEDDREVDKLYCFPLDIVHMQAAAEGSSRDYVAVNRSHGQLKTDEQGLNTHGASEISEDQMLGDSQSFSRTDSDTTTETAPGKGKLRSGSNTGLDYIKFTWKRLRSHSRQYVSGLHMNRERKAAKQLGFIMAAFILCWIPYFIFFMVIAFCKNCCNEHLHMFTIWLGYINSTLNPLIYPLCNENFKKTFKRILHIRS
Measured metric: pKi
Scale note: pKi = -log10(concentration in M).

## Input Please look up its pKi: COc1ccc(-c2nc(C)c(Cl)c(OCCCN3CCCCC3)n2)cc1 [CNY-01]
## Output 6.18

---

Target sequence: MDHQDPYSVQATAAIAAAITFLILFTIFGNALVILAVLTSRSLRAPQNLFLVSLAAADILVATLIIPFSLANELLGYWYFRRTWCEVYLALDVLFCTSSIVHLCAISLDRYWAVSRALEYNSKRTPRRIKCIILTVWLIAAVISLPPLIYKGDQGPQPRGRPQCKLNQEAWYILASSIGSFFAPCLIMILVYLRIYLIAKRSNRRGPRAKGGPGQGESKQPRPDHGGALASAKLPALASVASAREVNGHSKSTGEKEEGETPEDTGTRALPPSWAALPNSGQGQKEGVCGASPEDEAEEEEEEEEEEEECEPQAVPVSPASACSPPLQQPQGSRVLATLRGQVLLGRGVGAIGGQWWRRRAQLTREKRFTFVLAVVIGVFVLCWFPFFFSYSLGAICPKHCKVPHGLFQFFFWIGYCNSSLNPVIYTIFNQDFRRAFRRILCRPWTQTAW
Measured metric: pKi
# pKi: negative log10 of molar concentration; output just the value

[
  {
    "Smiles str": "Cc1nc(-c2ccc(Cl)cc2)nc(OCCCN2CCN(C)CC2)c1Cl",
    "pKi": 5.47
  }
]

## Input # input compound: COc1ccc(-c2nc(C)c(Cl)c(OCCCN3CCCCC3)n2)cc1 ; wanted: its pKi
## Output 5.87

---

# Study target: Alpha2A (Homo sapiens)
# Sequence (P08913 whole entry): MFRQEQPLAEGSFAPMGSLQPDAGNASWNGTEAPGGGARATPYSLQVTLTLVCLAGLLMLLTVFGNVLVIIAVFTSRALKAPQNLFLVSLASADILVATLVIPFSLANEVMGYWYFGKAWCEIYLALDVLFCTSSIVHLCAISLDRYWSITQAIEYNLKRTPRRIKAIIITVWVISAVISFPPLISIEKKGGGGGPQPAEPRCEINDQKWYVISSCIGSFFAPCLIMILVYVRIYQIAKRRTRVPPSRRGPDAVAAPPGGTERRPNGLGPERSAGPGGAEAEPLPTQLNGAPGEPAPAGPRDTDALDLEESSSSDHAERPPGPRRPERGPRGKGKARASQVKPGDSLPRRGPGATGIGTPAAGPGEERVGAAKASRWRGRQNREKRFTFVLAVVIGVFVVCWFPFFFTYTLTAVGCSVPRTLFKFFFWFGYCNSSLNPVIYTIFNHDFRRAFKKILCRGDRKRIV
Measured metric: Ki (µM)
State the answer as a number, implicitly in µM.

## Input Request the reported Ki associated with COc1ccc(-c2nc(C)c(Cl)c(OCCCN3CCCCC3)n2)cc1
## Output 2.37

---

# Study target: KOR (Homo sapiens, UniProt P41145)
# Sequence (P41145 whole entry): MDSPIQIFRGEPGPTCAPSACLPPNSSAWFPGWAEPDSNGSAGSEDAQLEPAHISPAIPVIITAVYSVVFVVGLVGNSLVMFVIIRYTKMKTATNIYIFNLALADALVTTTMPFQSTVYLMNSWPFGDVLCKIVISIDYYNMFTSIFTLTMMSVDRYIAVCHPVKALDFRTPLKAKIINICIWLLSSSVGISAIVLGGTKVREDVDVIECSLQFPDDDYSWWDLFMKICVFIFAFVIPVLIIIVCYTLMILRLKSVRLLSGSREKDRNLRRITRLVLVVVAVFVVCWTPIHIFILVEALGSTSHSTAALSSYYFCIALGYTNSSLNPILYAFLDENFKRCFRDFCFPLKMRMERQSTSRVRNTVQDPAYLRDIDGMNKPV
Measured metric: Ki
Please state the value followed by its unit.

## Input For the molecule COc1ccc(-c2nc(C)c(Cl)c(OCCCN3CCCCC3)n2)cc1 , what Ki is on record?
## Output 1060 nM

---

As a worked illustration, we turn to Ki data collected for σ1R (Cavia porcellus).
Report as a plain number; the unit nM is understood.

[
  {
    "Molecule": "COc1ccc(-c2nc(C)c(Cl)c(OCCCN3CCCCC3)n2)cc1 [CNY-01]",
    "Study target": "σ1R (Cavia porcellus)",
    "Observed measurement": 3.88
  }
]

Next molecule, please.
## Input Which Ki is reported for this molecule? Cc1nc(-c2ccc(Cl)cc2)nc(OCCCN2CCN(C)CC2)c1Cl [CNY-02]
## Output 2.05

---

# Study target: D1 (Homo sapiens)
# Sequence (P21728 whole entry): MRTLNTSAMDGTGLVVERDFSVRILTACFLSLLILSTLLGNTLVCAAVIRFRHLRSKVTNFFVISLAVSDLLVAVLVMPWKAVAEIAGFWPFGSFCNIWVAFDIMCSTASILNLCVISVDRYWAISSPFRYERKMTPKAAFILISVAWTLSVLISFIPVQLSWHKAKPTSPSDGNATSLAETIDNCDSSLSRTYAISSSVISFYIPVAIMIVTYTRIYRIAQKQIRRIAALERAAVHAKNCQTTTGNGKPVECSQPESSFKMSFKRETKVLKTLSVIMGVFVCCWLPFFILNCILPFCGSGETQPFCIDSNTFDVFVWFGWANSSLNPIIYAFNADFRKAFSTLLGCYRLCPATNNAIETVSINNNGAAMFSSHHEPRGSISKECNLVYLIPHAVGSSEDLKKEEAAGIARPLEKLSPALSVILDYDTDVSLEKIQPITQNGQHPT
# Assay explanation: PDSP radioligand assay
Measured metric: Ki (nM)
Field format: number, assumed nM, no unit text.

## Input Entry Cc1nc(-c2ccc(Cl)cc2)nc(OCCCN2CCN(C)CC2)c1Cl : reported Ki = ?
## Output 2340

---

Item-by-item account of pKi
# Study target: H2 (Homo sapiens)
# Sequence (P25021 whole entry): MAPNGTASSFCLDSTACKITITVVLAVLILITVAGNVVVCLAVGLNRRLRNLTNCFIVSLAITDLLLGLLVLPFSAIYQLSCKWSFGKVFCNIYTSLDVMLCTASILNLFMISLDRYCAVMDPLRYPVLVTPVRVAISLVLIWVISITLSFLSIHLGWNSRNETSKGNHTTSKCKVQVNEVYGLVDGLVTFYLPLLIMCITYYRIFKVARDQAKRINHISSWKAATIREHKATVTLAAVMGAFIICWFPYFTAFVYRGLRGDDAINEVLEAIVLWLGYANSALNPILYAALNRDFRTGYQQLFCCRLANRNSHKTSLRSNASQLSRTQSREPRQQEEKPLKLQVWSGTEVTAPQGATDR
Expect pKi as a plain number equal to -log10 of the molar concentration.

[
  {
    "Molecule": "Cc1nc(-c2ccc(Cl)cc2)nc(OCCCN2CCN(C)CC2)c1Cl [CNY-02]",
    "pKi": 5.91
  }
]

Let us move to another entry and its pKi.
## Input If you can, please state the reported pKi value of COc1ccc(-c2nc(C)c(Cl)c(OCCCN3CCCCC3)n2)cc1 [CNY-01] .
## Output 6.15

---

# Study target: UniProt P08912
# Sequence (P08912 whole entry): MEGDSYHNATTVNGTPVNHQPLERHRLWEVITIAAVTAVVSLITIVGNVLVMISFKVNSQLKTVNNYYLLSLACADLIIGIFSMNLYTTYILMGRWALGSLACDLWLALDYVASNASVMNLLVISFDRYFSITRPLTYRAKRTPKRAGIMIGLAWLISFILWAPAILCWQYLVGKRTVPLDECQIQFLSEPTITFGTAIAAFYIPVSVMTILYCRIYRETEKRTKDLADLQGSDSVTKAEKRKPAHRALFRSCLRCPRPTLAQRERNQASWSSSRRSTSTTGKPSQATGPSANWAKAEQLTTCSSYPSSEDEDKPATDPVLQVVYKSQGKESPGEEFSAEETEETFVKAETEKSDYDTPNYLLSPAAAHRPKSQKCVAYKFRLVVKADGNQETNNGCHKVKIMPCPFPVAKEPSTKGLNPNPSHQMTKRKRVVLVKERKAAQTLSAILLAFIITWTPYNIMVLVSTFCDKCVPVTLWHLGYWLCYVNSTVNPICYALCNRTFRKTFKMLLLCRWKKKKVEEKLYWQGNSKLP
Measured metric: Ki (µM)
Use µM as the unit, but write only the number.

## Input Record request: Ki value, item Cc1nc(-c2ccc(Cl)cc2)nc(OCCCN2CCN(C)CC2)c1Cl
## Output 2.5

---

Each entry below carries its measured pKi, system: 5-HT1D (Homo sapiens).
Sequence (P28221 whole entry, species assumed): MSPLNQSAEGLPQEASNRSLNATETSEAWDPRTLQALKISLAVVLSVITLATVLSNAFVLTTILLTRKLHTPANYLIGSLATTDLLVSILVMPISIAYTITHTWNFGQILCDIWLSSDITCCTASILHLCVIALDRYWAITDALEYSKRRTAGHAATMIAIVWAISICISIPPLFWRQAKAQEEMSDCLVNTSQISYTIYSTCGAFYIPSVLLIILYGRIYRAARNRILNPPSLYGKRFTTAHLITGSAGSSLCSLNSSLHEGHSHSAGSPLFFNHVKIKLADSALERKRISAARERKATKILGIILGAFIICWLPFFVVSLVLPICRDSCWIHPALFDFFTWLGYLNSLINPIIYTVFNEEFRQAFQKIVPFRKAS
Keep it numeric: pKi is minus log10 of the concentration in mol/L.

[
  {
    "Compound": "Cc1nc(-c2ccc(Cl)cc2)nc(OCCCN2CCN(C)CC2)c1Cl [CNY-02]",
    "pKi": 5.14
  }
]

Next compound, pKi to be filled in.
## Input # lookup: pKi of COc1ccc(-c2nc(C)c(Cl)c(OCCCN3CCCCC3)n2)cc1 [CNY-01]
## Output 5.57

---

# Study target: D3 (Homo sapiens, UniProt P35462)
# Sequence (P35462 whole entry): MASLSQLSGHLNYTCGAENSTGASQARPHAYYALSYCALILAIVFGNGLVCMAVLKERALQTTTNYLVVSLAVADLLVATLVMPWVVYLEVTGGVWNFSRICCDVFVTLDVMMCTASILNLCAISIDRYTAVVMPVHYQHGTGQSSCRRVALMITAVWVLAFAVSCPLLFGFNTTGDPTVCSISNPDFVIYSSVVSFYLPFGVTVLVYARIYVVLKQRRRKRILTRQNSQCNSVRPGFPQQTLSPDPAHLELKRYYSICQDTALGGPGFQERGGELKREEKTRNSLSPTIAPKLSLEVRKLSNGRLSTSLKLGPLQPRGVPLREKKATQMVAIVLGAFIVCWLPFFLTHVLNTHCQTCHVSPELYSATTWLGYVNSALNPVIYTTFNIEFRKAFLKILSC
Measured metric: pKi
The meaning of pKi here: minus log10 of the concentration in molar units.

[
  {
    "Smiles str": "COc1ccc(-c2nc(C)c(Cl)c(OCCCN3CCCCC3)n2)cc1",
    "pKi": 6.28
  }
]

## Input Reported pKi for D3 (Homo sapiens, UniProt P35462), given Cc1nc(-c2ccc(Cl)cc2)nc(OCCCN2CCN(C)CC2)c1Cl ?
## Output 5.31

---

# Study target: M3 (Homo sapiens)
# Sequence (P20309 whole entry): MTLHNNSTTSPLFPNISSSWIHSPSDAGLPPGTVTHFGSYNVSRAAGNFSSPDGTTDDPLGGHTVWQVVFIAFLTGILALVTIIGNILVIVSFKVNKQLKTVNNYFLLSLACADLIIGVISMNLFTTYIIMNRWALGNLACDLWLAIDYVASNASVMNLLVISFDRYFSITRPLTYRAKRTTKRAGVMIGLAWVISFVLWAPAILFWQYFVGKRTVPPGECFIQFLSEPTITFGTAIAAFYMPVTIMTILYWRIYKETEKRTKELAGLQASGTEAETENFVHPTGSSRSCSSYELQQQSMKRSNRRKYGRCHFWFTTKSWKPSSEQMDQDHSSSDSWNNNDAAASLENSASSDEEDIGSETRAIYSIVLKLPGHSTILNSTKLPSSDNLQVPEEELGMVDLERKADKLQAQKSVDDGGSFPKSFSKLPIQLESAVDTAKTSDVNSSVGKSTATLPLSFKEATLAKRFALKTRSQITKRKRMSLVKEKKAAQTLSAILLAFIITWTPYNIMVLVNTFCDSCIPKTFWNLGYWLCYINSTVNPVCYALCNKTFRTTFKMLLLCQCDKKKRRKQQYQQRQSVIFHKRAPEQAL
Measured metric: pKi
# reply with the number alone; pKi is -log10 of concentration in mol/L

## Input Sample Cc1nc(-c2ccc(Cl)cc2)nc(OCCCN2CCN(C)CC2)c1Cl [CNY-02] — what was its pKi?
## Output 6.14
